systemName: T1, huNav1.7α (human, UniProt Q15858 1-1988)
T1 construct: HEK cells expressing the α subunit alone; also called HEKa; HEK huNav1.7α
assayExplanation: binding FACS, HEKa cells
measuredProperty: EC50 (nM)

(I) F010301445 (VHH, vs 387G05: S100dY) VHH: EVQLVESGGGLVQAGGSLRLSCDASGRILRIGYMRWHRQGAGKQREFVARITDDSATDYADSVKGRFTISRDNAKNTVYLQMNNLNPEDTAVYYCEALVTASVRGGYIHSGTYWGRGTLVTVSS
(II) F010301565 (VHH, vs 387G05: D53G, D58G) VHH: EVQLVESGGGLVQAGGSLRLSCDASGRILRIGYMRWHRQGAGKQREFVARITGDSATGYADSVKGRFTISRDNAKNTVYLQMNNLNPEDTAVYYCEALVTASVRGGSIHSGTYWGRGTLVTVSS
Query string: Compare reported EC50 values for I and II . Which is lower? Record your answer as the label of the chosen record.
Result string: II
